target: mouse A2A adenosine receptor (Mus musculus, UniProt Q60613); test: Competition radioligand binding, mouse A2A AR, HEK293 membranes (Table 1); details: read-out: A2A % inhib.
Sequence (Q60613 whole entry): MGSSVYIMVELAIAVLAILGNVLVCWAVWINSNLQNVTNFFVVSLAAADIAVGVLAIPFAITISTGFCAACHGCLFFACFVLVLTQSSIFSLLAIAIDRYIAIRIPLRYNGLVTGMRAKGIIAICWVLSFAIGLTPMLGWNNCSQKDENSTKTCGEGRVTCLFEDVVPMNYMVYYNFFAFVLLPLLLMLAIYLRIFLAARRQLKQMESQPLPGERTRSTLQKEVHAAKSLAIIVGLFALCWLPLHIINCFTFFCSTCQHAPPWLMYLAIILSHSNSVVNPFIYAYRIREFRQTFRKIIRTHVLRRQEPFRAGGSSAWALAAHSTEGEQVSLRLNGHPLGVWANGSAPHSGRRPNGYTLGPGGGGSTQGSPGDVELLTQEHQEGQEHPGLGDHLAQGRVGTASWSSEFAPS
Assignment: determine reported inhibition at 100 µM for the given molecules.
# unit: % | format: bare number

Query: Would you mind telling me what inhibition at 100 µM value was observed for CNC(=O)C12CC1C(n1cnc3c(NCc4cccc(C#CCCCC(=O)O)c4)nc(Cl)nc31)C(O)C2O (stereo not shown) [Compound 9] ?
Reply: 5

Query: Entry CNC(=O)C12CC1C(n1cnc3c(NCc4cccc(C#CCO)c4)nc(Cl)nc31)C(O)C2O (stereo not shown) [Compound 16] please
Reply: 11

Query: Entry CNC(=O)C12CC1C(n1cnc3c(NCc4cccc(C#CCCCC(=O)NCCNC(C)=O)c4)nc(Cl)nc31)C(O)C2O (stereo not shown) [Compound 11] please
Reply: 68

Query: Entry CNC(=O)C12CC1C(n1cnc3c(NCc4cc(OC)ccc4OC)nc(I)nc31)C(O)C2O (stereo not shown) [Compound 2] please
Reply: 14
